Field: Hepatotoxicity (severe hepatitis). Provide a value for each of the molecules that follow.
details: human;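 note: human clinical data: severe hepatitis, meaning potentially life-threatening liver failure or clinically observed cases, the value counts how many indexed literature references report it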

molecule: CCN1CCN(C(=O)N[C@@H](C(=O)N[C@]2(OC)C(=O)N3C(C(=O)O)=C(CSc4nnnn4C)CS[C@@H]32)[C@H](C)O)C(=O)C1=O
Hepatotoxicity (severe hepatitis): 0

Quick batch: Hepatotoxicity (severe hepatitis) for everything below.
1. C[C@]12CCC(=O)C=C1CC[C@@H]1[C@@H]2[C@@H](O)C[C@@]2(C)[C@H]1CC[C@]2(O)C(=O)CO [HYDROCORTISONE]
2. CO[C@]12CC[C@@]3(C[C@@H]1[C@](C)(O)C(C)(C)C)[C@H]1Cc4ccc(O)c5c4[C@@]3(CCN1CC1CC1)[C@H]2O5

1: 1; 2: 2

Quick batch: Hepatotoxicity (severe hepatitis) for everything below.
1. CCCC1O[C@@H]2C[C@H]3[C@@H]4CCC5=CC(=O)C=C[C@]5(C)[C@H]4[C@@H](O)C[C@]3(C)[C@]2(C(=O)CO)O1 (stereo not given in full) [BUDESONIDE]
2. Cc1c(C)c2c(c(C)c1O)CCC(C)(COc1ccc(CC3SC(=O)NC3=O)cc1)O2 (stereo not given)

0
21
